# MEASURED ON: Serine/threonine-protein kinase B-raf (Homo sapiens, UniProt P15056, V600E)
# Sequence (P15056 whole entry V600E): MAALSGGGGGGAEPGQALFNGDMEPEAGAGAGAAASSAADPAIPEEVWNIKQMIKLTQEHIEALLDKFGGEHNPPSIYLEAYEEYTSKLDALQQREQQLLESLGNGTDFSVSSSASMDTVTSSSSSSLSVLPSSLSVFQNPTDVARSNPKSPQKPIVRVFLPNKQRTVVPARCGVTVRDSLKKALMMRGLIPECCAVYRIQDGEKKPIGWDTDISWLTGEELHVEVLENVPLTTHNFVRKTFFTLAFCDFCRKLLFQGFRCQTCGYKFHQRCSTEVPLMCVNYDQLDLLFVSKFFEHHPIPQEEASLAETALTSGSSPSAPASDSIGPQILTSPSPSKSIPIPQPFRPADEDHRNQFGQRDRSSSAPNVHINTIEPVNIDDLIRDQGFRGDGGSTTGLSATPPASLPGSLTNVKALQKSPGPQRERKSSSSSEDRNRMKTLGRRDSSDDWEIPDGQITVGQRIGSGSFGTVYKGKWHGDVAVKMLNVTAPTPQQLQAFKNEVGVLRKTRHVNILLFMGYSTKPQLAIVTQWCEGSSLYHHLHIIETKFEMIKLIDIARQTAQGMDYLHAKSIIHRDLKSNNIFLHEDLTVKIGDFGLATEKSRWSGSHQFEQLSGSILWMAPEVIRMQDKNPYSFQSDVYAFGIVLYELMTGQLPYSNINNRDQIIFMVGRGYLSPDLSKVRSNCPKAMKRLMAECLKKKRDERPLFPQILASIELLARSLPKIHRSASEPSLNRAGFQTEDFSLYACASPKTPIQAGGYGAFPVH
# ASSAY NAME: Inhibition of B-Raf V600E mutant (unknown origin)
READOUT TYPE: IC50 (nM)

> print(dat)
                                   compound                               measured.on  readout.type  reported.value
1  O=S(=O)(Nc1ccc(F)c(Nc2ccccc2-c2ncnc3[nH]cnc23)c1F)c1ccoc1  Serine/threonine-protein kinase B-raf (Homo sapiens, UniProt P15056, V600E)          IC50               2
2  Cc1nn(-c2ccccc2)c(Cl)c1Nc1ccc(C(F)(F)F)cc1  Serine/threonine-protein kinase B-raf (Homo sapiens, UniProt P15056, V600E)          IC50              66
3  Cc1ccc(C(=O)Nc2ccc(Cl)c(C(F)(F)F)c2)cc1NC(=O)C1(c2ccnc(NCCN3CCN(C)CC3)n2)CC1  Serine/threonine-protein kinase B-raf (Homo sapiens, UniProt P15056, V600E)          IC50            12.6
4  CNC(=O)c1cc(Cn2ccc3cc(NC(=O)Nc4ccc(Cl)c(C(F)(F)F)c4)ccc32)ccn1  Serine/threonine-protein kinase B-raf (Homo sapiens, UniProt P15056, V600E)          IC50             510
5  COC[C@@H]1C[C@H]2[C@@H]3CCc4cc(O)ccc4[C@H]3CC[C@]2(C)C1NN (some centres not stated)  Serine/threonine-protein kinase B-raf (Homo sapiens, UniProt P15056, V600E)          IC50              41
6  Cc1ccc(C2=NN=C(NC(=S)Nc3ccc(Cl)cc3)SC2)cc1  Serine/threonine-protein kinase B-raf (Homo sapiens, UniProt P15056, V600E)          IC50             180
7  COc1ccc(-n2cc(NC(=O)c3cccc(NC(=O)Nc4ccc(Cl)c(C(F)(F)F)c4)c3)cn2)cc1  Serine/threonine-protein kinase B-raf (Homo sapiens, UniProt P15056, V600E)          IC50              35

# credit: ChEMBL document CHEMBL5230104
